TARGET OF ASSAY: GST-Nv-NF-kB (Cys allele) (Nematostella vectensis, UniProt E5G601 2-411)
Sequence: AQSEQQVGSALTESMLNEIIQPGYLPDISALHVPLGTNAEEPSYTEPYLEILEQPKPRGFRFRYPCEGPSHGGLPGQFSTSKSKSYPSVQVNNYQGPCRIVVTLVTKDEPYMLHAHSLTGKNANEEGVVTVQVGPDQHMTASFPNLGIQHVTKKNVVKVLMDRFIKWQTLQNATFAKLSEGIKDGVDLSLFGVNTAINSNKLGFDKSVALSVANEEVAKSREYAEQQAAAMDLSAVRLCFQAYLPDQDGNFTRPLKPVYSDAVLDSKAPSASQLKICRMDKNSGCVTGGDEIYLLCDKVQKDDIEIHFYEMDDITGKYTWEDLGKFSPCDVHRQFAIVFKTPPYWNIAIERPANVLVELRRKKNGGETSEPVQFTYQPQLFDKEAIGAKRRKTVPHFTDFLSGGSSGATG
TEST DETAILS: protein-binding microarray (PBM); PBM: ~300 nM protein, 6 mM HEPES pH 7.8, 80 mM KCl, 0.5 mM EDTA, 0.5 mM EGTA, 6% glycerol, 35 ng/ul poly-dIdC, 1% milk, 1 h, room temperature; Ap Aiptasia and Nv Nematostella (sea anemones) / Co Capsaspora / Aq Amphimedon (sponge) / Dm Drosophila / Hu human; RHD is the Rel homology domain; high values mean tight binding
EXPERIMENTAL CONDITIONS: dsDNA, one strand shown
MEASUREMENT KIND: binding signal (z-score)

>>> df
                           monomer_sequence  measurement_kind  endpoint_unit  experimental_result
0  CCGATTAACATCAAGAACCCCCTTGATGTTAATCGGGTCTTGATTCGCTTGACGCTGCTG    binding signal        z-score                 6.12
1  CCGATTAACATCAGGGGGATAGATGATGTTAATCGGGTCTTGATTCGCTTGACGCTGCTG    binding signal        z-score                 3.25
2  CCGATTAACATCAAGTGGGAAAATGATGTTAATCGGGTCTTGATTCGCTTGACGCTGCTG    binding signal        z-score                 4.11
3  CCGATTAACATCAGGGCCCCCCCTGATGTTAATCGGGTCTTGATTCGCTTGACGCTGCTG    binding signal        z-score                 4.21
4  CCGATTAACATCAGAGATTCCCCTGATGTTAATCGGGTCTTGATTCGCTTGACGCTGCTG    binding signal        z-score                 9.61
5  CCGATTAACATCAGGCATTCCCCTGATGTTAATCGGGTCTTGATTCGCTTGACGCTGCTG    binding signal        z-score                 8.51
6  CCGATTAACATCACATTTCCCCCTGATGTTAATCGGGTCTTGATTCGCTTGACGCTGCTG    binding signal        z-score                 6.99
7  CCGATTAACATCAGGACTGCCCCTGATGTTAATCGGGTCTTGATTCGCTTGACGCTGCTG    binding signal        z-score                 4.13
8  CCGATTAACATCAATATTTCCCATGATGTTAATCGGGTCTTGATTCGCTTGACGCTGCTG    binding signal        z-score                 3.85

These entries and their values trace back to paper PMC5700166.
